# SYSTEM_UNDER_TEST: human M2 receptor (Homo sapiens, UniProt P08172)
# Sequence (P08172 1-466): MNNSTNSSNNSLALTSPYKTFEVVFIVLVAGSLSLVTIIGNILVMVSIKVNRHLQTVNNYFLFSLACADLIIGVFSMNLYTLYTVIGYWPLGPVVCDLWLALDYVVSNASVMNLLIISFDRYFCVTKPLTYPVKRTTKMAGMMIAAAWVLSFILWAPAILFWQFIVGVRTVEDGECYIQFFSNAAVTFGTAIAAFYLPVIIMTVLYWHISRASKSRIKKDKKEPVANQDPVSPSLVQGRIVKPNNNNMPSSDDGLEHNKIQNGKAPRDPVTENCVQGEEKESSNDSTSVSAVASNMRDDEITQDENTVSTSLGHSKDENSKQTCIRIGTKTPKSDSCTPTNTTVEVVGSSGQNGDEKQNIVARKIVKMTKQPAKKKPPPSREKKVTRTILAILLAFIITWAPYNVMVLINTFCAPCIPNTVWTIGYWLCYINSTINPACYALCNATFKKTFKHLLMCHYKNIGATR
# ASSAY_SUMMARY: Functional M2-GIRK1/4 activation test: allosteric potency (EC50) and efficiency
# CONDITION_SET: Receptor activity EC50, CHO-DUKX-M2-GIRK cells; acetylcholine at EC20; in some cases mean of two or more determinations
METRIC: EC50 (nM)

Fill in reported EC50 for this entry: CC(NC(=O)c1cn(-c2ncc(F)cc2F)c2nc(N3CCNC3=O)ccc2c1=O)C(F)(F)C(F)(F)F (racemic) [Example 161]
70

Retrieve EC50 measured for CCC(COC(F)(F)F)NC(=O)c1cn(-c2ncc(F)cc2F)c2nc(N3C[C@@H](C)NC3=O)ccc2c1=O (stereo partly drawn) and print it.
18

Output EC50 of `O=C(N[C@H](C1CC1)C(F)(F)F)c1cn(-c2ncccc2Cl)c2nc(N3C[C@@H](O)CC3=O)ccc2c1=O`
575

Note down EC50 recorded for O=C(NC(CC(F)(F)F)C(F)(F)F)c1cn(-c2ncc(F)cc2F)c2nc(N3C[C@@H](O)[C@H](O)C3)ccc2c1=O (stereo partly drawn)
155

[P] O=C(N[C@H](C1CC1)C(F)(F)F)c1cn(-c2ncccc2F)c2nc(N3CC4C[C@@]4(O)C3)ccc2c1=O (single isomer, unassigned) [Example 137]
[Q] O=C(NC12CC(F)(C1)C2)c1cn(-c2ncc(F)cc2F)c2nc(N3C[C@@H](O)CC3=O)ccc2c1=O
Which shows the larger EC50 value: P or Q ? // respond with label for picked entry
Q
(Q: 1060 nM, P: 110 nM)

---

# SYSTEM_UNDER_TEST: human M2 receptor (Homo sapiens, UniProt P08172)
# ASSAY_SUMMARY: Functional M2-GIRK1/4 activation test: allosteric potency (EC50) and efficiency
# CONDITION_SET: read-out: Efficiency, boosting of the acetylcholine effect at EC20 acetylcholine concentration; CHO-DUKX-M2-GIRK cells
METRIC: Emax (%)

Annotate the compound `CC(CF)(CF)NC(=O)c1cn(-c2ncc(F)cc2F)c2nc(N3C[C@@H](O)[C@H](O)C3)ccc2c1=O` with its measured Emax.
100

For `CC(C)C[C@H](NC(=O)c1cn(-c2ncc(F)cc2F)c2nc(N3CCNC3=O)ccc2c1=O)C(F)(F)F` , write its Emax.
100

Look up and report measured Emax for this entry: `O=C(NC12CC(F)(C1)C2)c1cn(-c2ncc(F)cc2F)c2nc(N3C[C@@H](O)CC3=O)ccc2c1=O`
89

Give a short answer stating reported Emax for `O=C(N[C@H](C1CC1)C(F)(F)F)c1cn(-c2ncc(F)cc2F)c2nc(N3CCNC3=O)ccc2c1=O` .
100

The measured values listed here are drawn from patent US10519154B2.
